Would you mind telling me the reported IC50 of each entry?
# System: Leishmania infantum
# method_description: Antileishmanial activity against amastigote form of Leishmania infantum MHOM/MA(BE)/67 infected in Swiss mouse peritoneal macrophages assessed as reduction in parasite growth treated at 2 hrs post-infection and measured after 5 days by Giemsa staining based microscopic analysis
# Assay type: functional, organism-based
# condition_set: MHOM/MA(BE)/67, Peritoneal macrophage

Nc1ncnc2c1c(-c1nnn[nH]1)nn2[C@@H]1O[C@H](CO)[C@@H](O)[C@H]1O | > 64 µM
Nc1ncnc2c1c(-c1ccc(Cl)c(F)c1)nn2[C@@H]1O[C@H](CO)[C@@H](O)[C@H]1O | > 64 µM
N#Cc1nn([C@@H]2O[C@H](CO)[C@@H](O)[C@H]2O)c2ncnc(N)c12 | 8 µM
Nc1ncnc2[nH]ncc12 | 0.18 µM

For every item in the list below, what is its measured IC50?
1. Nc1ncnc2c1c(Br)nn2[C@@H]1O[C@H](CO)[C@@H](O)[C@H]1O
2. Nc1ncnc2c1c(-c1cc(F)c(Cl)c(F)c1)nn2[C@@H]1O[C@H](CO)[C@@H](O)[C@H]1O

Response:
1. 29.4 µM
2. > 64 µM

// batch mode: one IC50 value per listed entry
1. Cc1csc(-c2nn([C@@H]3O[C@H](CO)[C@@H](O)[C@H]3O)c3ncnc(N)c23)c1
2. Cc1nn([C@@H]2O[C@H](CO)[C@@H](O)[C@H]2O)c2ncnc(N)c12
3. C=Cc1nn([C@@H]2O[C@H](CO)[C@@H](O)[C@H]2O)c2ncnc(N)c12
4. Nc1ncnc2c1c(-c1cccs1)nn2[C@@H]1O[C@H](CO)[C@@H](O)[C@H]1O
5. Nc1ncnc2c1c(N)nn2[C@@H]1O[C@H](CO)[C@@H](O)[C@H]1O
6. Nc1ncnc2c1c(-c1ccc(OC(F)(F)F)cc1)nn2[C@@H]1O[C@H](CO)[C@@H](O)[C@H]1O

Response:
1: > 64 µM; 2: 32.7 µM; 3: 12.7 µM; 4: > 64 µM; 5: 6.82 µM; 6: > 64 µM

Would you mind listing IC50 for each of the following molecules?
1. Nc1ncnc2c1c(/C=C/c1ccccc1)nn2[C@@H]1O[C@H](CO)[C@@H](O)[C@H]1O
2. Nc1ncnc2c1c(-c1ccc(Cl)s1)nn2[C@@H]1O[C@H](CO)[C@@H](O)[C@H]1O
3. Cc1ccc(-c2nn([C@@H]3O[C@H](CO)[C@@H](O)[C@H]3O)c3ncnc(N)c23)cc1

Response:
["50.8 µM", "> 64 µM", "> 64 µM"]

Below are 6 molecules. Give each one its IC50.
1. Nc1ncnc2c1c(-c1ccc(F)c(F)c1)nn2[C@@H]1O[C@H](CO)[C@@H](O)[C@H]1O
2. Nc1ncnc2c1c(N1CCCC1)nn2[C@@H]1O[C@H](CO)[C@@H](O)[C@H]1O
3. Nc1ncnc2c1c(-c1ccc(Cl)cc1)nn2[C@H]1C[C@H](O)[C@@H](CO)O1
4. C=C(C)c1nn([C@@H]2O[C@H](CO)[C@@H](O)[C@H]2O)c2ncnc(N)c12
5. Nc1ncnc2c1cnn2[C@@H]1O[C@H](CO)[C@@H](O)[C@H]1O
6. Nc1ncnc2c1c(-c1ccncc1)nn2[C@@H]1O[C@H](CO)[C@@H](O)[C@H]1O

Response:
1: > 64 µM; 2: > 64 µM; 3: ≥ 32.5 µM; 4: 24.1 µM; 5: 1.06 µM; 6: 25.4 µM
